protocol: Half life in Sprague-Dawley rat at 0.5 mg/kg, iv measured for 8 hrs by LC-MS/MS analysis
Format: ADME, organism-based
condition_context: in vivo
Measured half-life, listed per entry for reference.
Unit h implied. Number only.

// known answers, use as guide
Cc1c(N)cncc1-c1cc2cc(NC(=O)OC3CCOCC3)ncc2c(N)c1F | 1.2
Cc1c(-c2cc3cc(NC(=O)O[C@H]4COC[C@@H]4C)ncc3c(N)c2F)cnc2c1NCCO2 | 1.3
Cc1c(-c2cc3cc(NC(=O)OC4CCOCC4)ncc3c(N)c2F)cnc2c1NCCO2 | 1.5

Field: next molecule
The reported half-life of the molecule Cc1c(N)cncc1-c1cc2cc(Nc3cc4n(n3)CC(=O)N(C)CC4)ncc2c(N)c1F was 0.57

---

target_or_system: Sodium channel protein type 5 subunit alpha (Homo sapiens, UniProt Q14524)
Sequence (Q14524 whole entry): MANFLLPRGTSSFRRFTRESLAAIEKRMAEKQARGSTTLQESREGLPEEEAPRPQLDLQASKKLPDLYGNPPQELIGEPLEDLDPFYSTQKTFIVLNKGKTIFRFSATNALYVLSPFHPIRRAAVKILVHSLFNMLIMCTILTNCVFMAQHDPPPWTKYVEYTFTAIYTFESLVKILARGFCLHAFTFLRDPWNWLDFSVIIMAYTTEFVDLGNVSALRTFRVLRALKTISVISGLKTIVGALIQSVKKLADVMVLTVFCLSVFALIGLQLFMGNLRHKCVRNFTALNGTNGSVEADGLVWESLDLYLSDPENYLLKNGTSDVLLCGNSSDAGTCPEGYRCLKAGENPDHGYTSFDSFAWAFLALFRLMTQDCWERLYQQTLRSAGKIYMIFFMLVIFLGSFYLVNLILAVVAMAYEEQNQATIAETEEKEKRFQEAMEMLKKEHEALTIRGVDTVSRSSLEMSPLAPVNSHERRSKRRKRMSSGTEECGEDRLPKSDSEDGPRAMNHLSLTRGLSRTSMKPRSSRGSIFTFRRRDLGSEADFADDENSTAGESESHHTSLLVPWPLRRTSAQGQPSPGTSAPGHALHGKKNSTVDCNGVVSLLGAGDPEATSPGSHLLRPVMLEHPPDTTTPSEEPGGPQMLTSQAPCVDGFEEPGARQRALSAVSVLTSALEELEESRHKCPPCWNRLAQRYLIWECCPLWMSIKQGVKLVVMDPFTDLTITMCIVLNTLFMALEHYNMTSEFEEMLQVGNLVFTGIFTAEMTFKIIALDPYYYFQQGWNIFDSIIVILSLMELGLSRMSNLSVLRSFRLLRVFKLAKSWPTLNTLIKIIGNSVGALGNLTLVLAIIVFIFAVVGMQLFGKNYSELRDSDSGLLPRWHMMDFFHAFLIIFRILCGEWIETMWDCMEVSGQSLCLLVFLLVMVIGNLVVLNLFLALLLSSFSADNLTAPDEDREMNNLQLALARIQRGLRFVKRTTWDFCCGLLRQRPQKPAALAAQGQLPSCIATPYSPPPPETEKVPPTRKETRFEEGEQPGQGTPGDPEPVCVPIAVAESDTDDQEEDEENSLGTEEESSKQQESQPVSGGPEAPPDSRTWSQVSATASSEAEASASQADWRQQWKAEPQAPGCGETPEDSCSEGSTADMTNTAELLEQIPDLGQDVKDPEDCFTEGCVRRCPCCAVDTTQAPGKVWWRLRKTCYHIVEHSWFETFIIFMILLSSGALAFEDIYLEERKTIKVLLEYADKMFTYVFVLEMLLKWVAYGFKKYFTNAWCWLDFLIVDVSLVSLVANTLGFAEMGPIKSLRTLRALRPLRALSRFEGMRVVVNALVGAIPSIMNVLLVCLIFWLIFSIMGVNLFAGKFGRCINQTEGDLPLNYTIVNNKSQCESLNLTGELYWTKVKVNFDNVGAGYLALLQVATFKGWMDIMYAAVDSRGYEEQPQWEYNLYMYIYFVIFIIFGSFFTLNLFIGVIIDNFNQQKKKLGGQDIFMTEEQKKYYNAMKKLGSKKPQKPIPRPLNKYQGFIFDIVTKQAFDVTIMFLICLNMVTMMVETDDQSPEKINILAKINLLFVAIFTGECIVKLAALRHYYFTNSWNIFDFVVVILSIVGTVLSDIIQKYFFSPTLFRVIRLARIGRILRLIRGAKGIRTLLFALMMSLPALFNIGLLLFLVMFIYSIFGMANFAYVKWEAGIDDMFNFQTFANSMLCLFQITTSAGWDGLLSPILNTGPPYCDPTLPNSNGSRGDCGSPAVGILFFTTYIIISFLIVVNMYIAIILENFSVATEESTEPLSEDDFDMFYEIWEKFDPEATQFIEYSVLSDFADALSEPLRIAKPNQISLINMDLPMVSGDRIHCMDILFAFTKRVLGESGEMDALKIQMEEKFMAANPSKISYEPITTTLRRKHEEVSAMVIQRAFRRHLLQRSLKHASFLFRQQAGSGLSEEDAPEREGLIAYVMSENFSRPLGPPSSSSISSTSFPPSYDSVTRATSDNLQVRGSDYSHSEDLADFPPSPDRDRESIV
protocol: Inhibition of Nav1.5 (unknown origin)
measured_quantity: IC50

Field IC50 (entry Cc1c(-c2cc3cc(NC(=O)O[C@H]4COC[C@@H]4C)ncc3c(N)c2F)cnc2c1NCCO2 ) reads > 10 µM

---

Reported solubility kinetic values for a set of molecules
protocol: Kinetic solubility of the compound in PBS at pH 7.4
Type: physicochemical
condition_context: read-out: Kinetic_solubility
Numeric answer only, unit µM assumed.

Cc1c(N)cncc1-c1cc2cc(NC(=O)OC3CCOCC3)ncc2c(N)c1F | 13

Could you now consider this next molecule?
Lab book: solubility kinetic of Cc1c(-c2cc3cc(NC(=O)OC4CCOCC4)ncc3c(N)c2F)cnc2c1NCCO2 noted as 1.5

---

target_or_system: Aurora kinase B (Homo sapiens)
Sequence (Q96GD4 whole entry): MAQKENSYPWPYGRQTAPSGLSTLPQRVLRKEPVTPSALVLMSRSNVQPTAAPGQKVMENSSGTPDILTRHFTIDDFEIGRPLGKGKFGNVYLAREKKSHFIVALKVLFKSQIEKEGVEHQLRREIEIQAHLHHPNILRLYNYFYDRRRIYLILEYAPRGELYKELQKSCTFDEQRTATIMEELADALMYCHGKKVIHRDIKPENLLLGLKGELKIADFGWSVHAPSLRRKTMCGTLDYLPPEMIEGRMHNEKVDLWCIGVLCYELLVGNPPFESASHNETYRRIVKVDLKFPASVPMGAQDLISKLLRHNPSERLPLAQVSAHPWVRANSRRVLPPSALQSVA
measured_quantity: IC50 (nM)
Write it as a number; the unit nM goes unstated.

Bench note, Aurora kinase B (Homo sapiens): entry Cc1c(-c2cc3cc(NC(=O)O[C@H]4COC[C@@H]4C)ncc3c(N)c2F)cnc2c1NCCO2 , its IC50 = 46

---

Consider the following compounds and their measured Vdss readings.
protocol: Volume of distribution at steady state in C57BL/6 mouse at 25 mg/kg, po or 1 mg/kg, iv measured for 24 hrs by LC-MS/MS analysis
Type: ADME, organism-based
condition_context: in vivo
Give the value in L/kg but do not write L/kg after it.

Example results:
Cc1c(-c2cc3cc(NC(=O)O[C@H]4COC[C@@H]4C)ncc3c(N)c2F)cnc2c1NCCO2 | 1.8
Cc1c(N)cncc1-c1cc2cc(NC(=O)OC3CCOCC3)ncc2c(N)c1F | 1.7

// sample Cc1c(N)cncc1-c1cc2cc(Nc3cc4n(n3)CC(=O)N(C)CC4)ncc2c(N)c1F , its Vdss was 1.3

Notebook: Cc1c(-c2cc3cc(NC(=O)OC4CCOCC4)ncc3c(N)c2F)cnc2c1NCCO2 , Vdss read as 1.3

---

protocol: Protein binding in mouse plasma
Format: ADME, cell-free
condition_context: read-out: PPB (converted)
measured_quantity: fraction unbound

Form field fraction unbound, entry Cc1c(-c2cc3cc(NC(=O)O[C@H]4COC[C@@H]4C)ncc3c(N)c2F)cnc2c1NCCO2 : 0.053

---

target_or_system: Leucine-rich repeat serine/threonine-protein kinase 2 (Homo sapiens, UniProt Q5S007)
Sequence (Q5S007 whole entry): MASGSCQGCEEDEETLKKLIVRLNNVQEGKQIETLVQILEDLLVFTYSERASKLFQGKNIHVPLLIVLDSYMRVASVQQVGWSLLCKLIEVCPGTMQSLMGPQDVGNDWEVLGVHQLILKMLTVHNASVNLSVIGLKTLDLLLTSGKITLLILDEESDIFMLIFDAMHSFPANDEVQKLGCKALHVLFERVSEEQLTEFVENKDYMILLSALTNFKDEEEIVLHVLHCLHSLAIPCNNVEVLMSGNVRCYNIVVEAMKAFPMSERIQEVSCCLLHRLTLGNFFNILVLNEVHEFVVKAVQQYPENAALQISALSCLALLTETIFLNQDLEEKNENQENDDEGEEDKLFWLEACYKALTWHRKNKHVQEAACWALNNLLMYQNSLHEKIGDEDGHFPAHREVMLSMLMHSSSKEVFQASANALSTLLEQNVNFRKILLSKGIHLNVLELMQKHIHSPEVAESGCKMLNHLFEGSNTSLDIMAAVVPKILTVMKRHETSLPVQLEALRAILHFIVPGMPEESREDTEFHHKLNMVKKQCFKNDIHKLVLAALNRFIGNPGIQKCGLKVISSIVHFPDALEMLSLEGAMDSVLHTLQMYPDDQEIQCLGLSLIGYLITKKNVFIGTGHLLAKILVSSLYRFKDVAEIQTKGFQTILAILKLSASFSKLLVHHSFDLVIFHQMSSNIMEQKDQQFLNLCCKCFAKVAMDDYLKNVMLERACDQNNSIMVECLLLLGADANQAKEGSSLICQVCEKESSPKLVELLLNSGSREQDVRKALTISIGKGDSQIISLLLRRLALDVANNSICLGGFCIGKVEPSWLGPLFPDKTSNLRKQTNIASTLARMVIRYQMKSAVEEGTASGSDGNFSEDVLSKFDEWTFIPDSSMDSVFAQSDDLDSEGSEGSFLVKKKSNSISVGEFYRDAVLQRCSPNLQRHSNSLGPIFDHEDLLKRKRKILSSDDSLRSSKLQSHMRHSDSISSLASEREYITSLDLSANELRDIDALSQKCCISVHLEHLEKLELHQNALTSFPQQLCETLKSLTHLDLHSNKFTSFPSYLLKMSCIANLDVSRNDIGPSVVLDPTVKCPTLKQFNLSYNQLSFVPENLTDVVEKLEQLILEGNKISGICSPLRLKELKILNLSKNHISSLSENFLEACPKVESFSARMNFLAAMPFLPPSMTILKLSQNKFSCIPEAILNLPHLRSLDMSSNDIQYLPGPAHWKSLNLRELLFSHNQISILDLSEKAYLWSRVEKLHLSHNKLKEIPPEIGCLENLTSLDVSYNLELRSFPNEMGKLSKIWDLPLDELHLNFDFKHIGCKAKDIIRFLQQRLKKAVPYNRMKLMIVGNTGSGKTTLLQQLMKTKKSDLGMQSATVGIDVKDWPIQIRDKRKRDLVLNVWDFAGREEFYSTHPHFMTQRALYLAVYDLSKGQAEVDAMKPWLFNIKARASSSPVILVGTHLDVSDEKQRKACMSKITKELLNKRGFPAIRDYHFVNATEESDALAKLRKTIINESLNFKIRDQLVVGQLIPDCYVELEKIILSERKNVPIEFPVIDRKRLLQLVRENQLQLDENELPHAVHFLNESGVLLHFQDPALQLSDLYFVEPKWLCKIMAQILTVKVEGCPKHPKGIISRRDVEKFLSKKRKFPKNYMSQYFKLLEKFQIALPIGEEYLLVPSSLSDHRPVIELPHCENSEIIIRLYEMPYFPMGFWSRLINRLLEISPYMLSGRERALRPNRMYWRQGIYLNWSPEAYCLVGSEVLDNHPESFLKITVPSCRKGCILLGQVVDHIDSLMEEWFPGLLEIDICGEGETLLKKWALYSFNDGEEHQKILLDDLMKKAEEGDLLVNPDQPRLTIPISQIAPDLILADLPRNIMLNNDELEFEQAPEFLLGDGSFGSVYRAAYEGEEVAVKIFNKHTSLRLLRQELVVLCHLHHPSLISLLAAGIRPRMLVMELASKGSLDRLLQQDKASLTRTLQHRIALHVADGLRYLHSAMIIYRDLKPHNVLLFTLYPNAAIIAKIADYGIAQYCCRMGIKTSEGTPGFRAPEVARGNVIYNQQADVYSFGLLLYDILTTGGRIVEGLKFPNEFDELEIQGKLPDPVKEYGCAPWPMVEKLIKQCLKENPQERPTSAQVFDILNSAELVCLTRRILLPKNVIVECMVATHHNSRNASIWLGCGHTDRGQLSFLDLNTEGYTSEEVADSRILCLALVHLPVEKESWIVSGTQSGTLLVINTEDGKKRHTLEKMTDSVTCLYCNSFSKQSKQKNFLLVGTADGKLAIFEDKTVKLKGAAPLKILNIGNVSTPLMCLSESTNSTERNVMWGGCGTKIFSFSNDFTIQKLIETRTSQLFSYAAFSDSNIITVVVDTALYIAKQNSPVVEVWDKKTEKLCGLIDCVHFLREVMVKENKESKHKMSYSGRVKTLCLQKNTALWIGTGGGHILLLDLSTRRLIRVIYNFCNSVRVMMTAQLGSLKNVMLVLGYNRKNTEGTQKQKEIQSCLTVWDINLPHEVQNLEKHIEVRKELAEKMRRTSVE
measured_quantity: pIC50
Scale: pIC50 equals -log10([C]), with [C] in mol/L.

What the record says about Cc1c(-c2cc3cc(NC(=O)O[C@H]4COC[C@@H]4C)ncc3c(N)c2F)cnc2c1NCCO2 : pIC50 is 7.51

---

target_or_system: Mitogen-activated protein kinase kinase kinase kinase 4 (Homo sapiens, UniProt O95819)
protocol: Inhibition of MAP4K4 (unknown origin)
measured_quantity: pIC50
Interpret pIC50 as the negative base-10 log of the concentration measured in mol/L.

Just so you know, measured pIC50 for Cc1c(-c2cc3cc(NC(=O)O[C@H]4COC[C@@H]4C)ncc3c(N)c2F)cnc2c1NCCO2 came out at 8.48

---

protocol: Protein binding in dog plasma
Format: ADME, cell-free, Canis lupus familiaris
condition_context: read-out: PPB (converted)
measured_quantity: fraction unbound

Query Cc1c(-c2cc3cc(NC(=O)O[C@H]4COC[C@@H]4C)ncc3c(N)c2F)cnc2c1NCCO2 yields fraction unbound of 0.142

Where do the numbers come from? From ChEMBL document CHEMBL6127064.
